Every entry's value here was drawn from PubChem BioAssay AID1996.

Settings: buffer; pH 7.4; 200.0 µM
endpoint: solubility kinetic (µg/mL)

{"columns": ["compound", "unit tag", "value operator", "reported value"],
 "data": [
  ["Cc1[nH]c2ccccc2c1CCNC(=O)c1ccc2nccnc2c1", "µg/mL", "=", 41.1],
  ["COc1cccc(-c2cc(-c3cccnc3)nc(N)c2C#N)c1", "µg/mL", "=", 2.3],
  ["CC(NC(=O)CSc1ccccc1)c1ccccc1 (stereo unspecified)", "µg/mL", "=", 37.1],
  ["CSCCC(NC(=O)C1CCCC1)c1nnc2ccccn12 (stereo unspecified)", "µg/mL", ">", 47.8],
  ["CCS(=O)(=O)c1ccc2c(c1)NC(=O)C(CCO)O2 (stereo unspecified)", "µg/mL", "=", 40.4],
  ["Cc1cc(=O)[nH]c(SCC(=O)NCCC2=CCCCC2)n1", "µg/mL", "=", 38.8]
]}

###

Settings: buffer; pH 7.4; 200.0 µM
In this section, each of the compounds is paired with its reported log10(solubility kinetic).
endpoint: log10(solubility kinetic) (log10 of the value in µg/mL)

{"columns": ["compound", "log10(solubility kinetic)"],
 "data": [
  ["Cc1cccc(C(=O)N[C@H](C(=O)Nc2ccc3c(c2)OCO3)C(C)C)c1", 0.74],
  ["COc1ccc(NC(=O)CCOc2ccccc2F)cc1S(=O)(=O)N1CCCCC1", 1.54],
  ["CCOC(=O)c1c(/N=C/C2=C(O)CCCC2=O)sc2c1CCCC2", 0.56],
  ["C#CC1CCCCC1NC(=O)Nc1cnccc1C(F)(F)F (stereo unspecified)", 1.64],
  ["O=C(COC(=O)/C=C/c1ccc(S(=O)(=O)N2CCOCC2)cc1)Nc1ccccc1F", 1.10]
]}

###

Settings: buffer; pH 7.4; 200.0 µM
In this section, each of the compounds is paired with its reported solubility kinetic.
endpoint: solubility kinetic (µg/mL)

{"columns": ["compound", "value operator", "reported value"],
 "data": [
  ["Cc1[nH]c2ccc(Cl)cc2c(=O)c1CN1CCCC1", "=", 38.7],
  ["CCN1C(=O)C(=O)N(Cc2ccc(OC)c(F)c2)C1=O", "=", 40.4],
  ["c1ccc(CO/N=C(\\c2ccc(C3CC3)nc2)C2CC2)cc1", "=", 1.9],
  ["CC[n+]1ccc(C(=O)NCc2ccccc2)cc1.[Cl-]", ">", 41.5],
  ["CC(=O)C1=C(O)C(=O)N(Cc2ccccc2)C1c1ccc(N(C)C)cc1 (stereo not given)", "=", 51.6],
  ["COc1ccc(C(=O)NCC(=O)Nc2cccc(S(=O)(=O)N3CCCC3)c2)cc1", "=", 60.1],
  ["Cc1cc(C)c(C#N)c(SC(C(=O)NC(C)(C)C)c2ccccc2)n1 (stereo not given)", "<", 0.3],
  ["CN(C)CCN=Cc1c(O)n(Cc2ccc3c(c2)OCO3)c(=S)[nH]c1=O", "=", 55.8],
  ["O=C(CSc1ncnc2ccccc12)NC1CCS(=O)(=O)C1 (stereo not given)", ">", 50.6],
  ["COC(=O)CN1C(=O)NC2(CCCc3ccccc32)C1=O (stereo not given)", ">", 43.2],
  ["CN(Cc1cccc(F)c1)C(=O)c1ccc2c(=O)n3c(nc2c1)CCC3", "=", 49.8],
  ["CCNc1nc2c(c(=O)n(C)c(=O)n2C)n1CCCc1ccccc1", "=", 38.2],
  ["CO/N=C(/CN1CCCCC1)c1ccc(Cl)cc1", "=", 8.9],
  ["Cc1nc(CSc2ccc(Br)cc2)cs1", "=", 8.8],
  ["O=C(Nc1cccnc1)Nc1cccc(F)c1", ">", 34.7],
  ["O=C(NCCC1CCCC1)c1cccs1", ">", 33.5],
  ["CC1CC(C)CN(C(=O)CSc2ncnc3sccc23)C1 (stereo not given)", "=", 17.1],
  ["COc1ccccc1NC(=O)/C=C1\\NC(=O)CS1", ">", 39.6],
  ["CC1=C(C(=O)OC(C)C)C(c2ccc(C)o2)C(C(=O)OC(C)C)=C(C)N1", "=", 11.8],
  ["Cc1nc2c(Cl)cccc2c2c1CC(CBr)O2 (stereo not given)", "=", 12.5],
  ["N#CC1(N2CCN(C(=O)c3ccccc3)CC2)CCCCC1", "=", 35.9],
  ["CC1CN(c2nc3ccccc3nc2NS(=O)(=O)c2ccccc2)CC(C)O1 (stereo not given)", ">", 59.8],
  ["CCCCc1ccc(NC(=O)N[C@@H](C)C(=O)O)cc1", ">", 39.6],
  ["Cc1oc2ccccc2c1CNC(=O)N(C)C", ">", 34.8],
  ["Cc1cccc(C(CC(=O)NCc2ccco2)c2ccccc2)c1O (stereo not given)", ">", 50.3]
]}

###

Details: buffer; pH 7.4; 200.0 µM
endpoint: solubility kinetic

{"columns": ["molecule", "reported value"],
 "data": [
  ["COc1ccc(Cl)cc1C(=O)OCC(=O)N1CCCC(C)C1 (stereo unspecified)", "> 48.9 µg/mL"],
  ["CC(C)(C)c1ccc(S(=O)(=O)Nc2noc3ccccc23)cc1", "> 49.6 µg/mL"],
  ["CNCCCN1c2ccccc2CCc2ccccc21.Cl", "> 45.4 µg/mL"],
  ["CC(=O)c1ccc(N2CCN(C(=O)Nc3ccc(C)cc3)CC2)cc1", "1.4 µg/mL"],
  ["CSc1ccccc1NC(=O)c1ccc2c(c1)CCN2S(C)(=O)=O", "9.1 µg/mL"],
  ["Cc1cc(C)c2c(CC(=O)NN(C)C)coc2c1", "> 36.9 µg/mL"]
]}

###

Settings: buffer; pH 7.4; 200.0 µM
Class rule met: solubility kinetic at least 5 µg/mL. Class rule not met: solubility kinetic below 5 µg/mL.

{"columns": ["compound", "class label"],
 "data": [
  ["CCN(CC)C(=O)c1ccc(CS(=O)(=O)Cc2ccccc2)cc1", "rule met"],
  ["Cc1cc(NC(=O)Cc2ccc(Br)cc2)no1", "rule not met"],
  ["COc1ccc(Cl)cc1C(=O)NCc1ccco1", "rule met"],
  ["CSc1ncc(Cl)c(C(=O)Nc2cccc(Cl)c2)n1", "rule not met"],
  ["Cc1cc2c([nH]c3ccccc32)c(C)[nH+]1.[Cl-]", "rule met"],
  ["CCOC(=O)c1sc(=S)n(C)c1NC(=O)c1ccc(OC)cc1", "rule met"],
  ["O=C(NC1CCCC1)C1CCN(C(=O)c2cccc(Cl)c2)CC1", "rule met"],
  ["CC(=O)c1c(C)[nH]c(C(=O)OCC(=O)N(Cc2ccccc2)C(C)(C)C)c1C", "rule met"],
  ["COc1ccc(NS(=O)(=O)c2cc(C(=O)NNC(=O)c3ccncc3)ccc2OC)c(OC)c1", "rule met"],
  ["S=C(Nc1ccc2c(c1)OCCO2)Nc1ccccc1Cl", "rule met"],
  ["O=C(NC1CCCN(Cc2ccccc2F)C1)C1CCC1 (configuration not stated)", "rule met"]
]}

###

In this section, each of the compounds is paired with its reported solubility kinetic.
Settings: buffer; pH 7.4; 200.0 µM

{"columns": ["compound", "unit tag", "value operator", "solubility kinetic"],
 "data": [
  ["CCOc1cc(N2CCOCC2)c(OCC)cc1NC(=O)c1ccc(OC)c(S(=O)(=O)N2CCOCC2)c1", "µg/mL", "=", 45.2],
  ["CCOC(=O)C1(CC2CC2)CCN(C(=O)c2cccnc2C)CC1", "µg/mL", ">", 49.6],
  ["CN(C)C(=S)Nc1ccc(N2CCOCC2)cc1", "µg/mL", ">", 39.8],
  ["CC(=O)c1ccc(OCCOc2ccc([N+](=O)[O-])cc2)cc1", "µg/mL", "=", 3.7],
  ["Cc1cc2nc(-c3ccc[nH]c3=O)n(Cc3cccc(F)c3)c2cc1C", "µg/mL", "=", 1.3],
  ["CCC(=O)NCc1ccc(-c2nc3ncccc3o2)cc1", "µg/mL", ">", 42.2],
  ["Cc1cccc(C)c1NC(=O)N1CCCCCCC1", "µg/mL", "=", 38.8],
  ["COc1ccc(C(=O)COC(=O)c2ccccn2)cc1OC", "µg/mL", "=", 44.5],
  ["CCOc1ccc(-c2nc(N)ncc2-c2ccccc2OC)c(O)c1", "µg/mL", "=", 1.3],
  ["O=C(c1ccc2c(c1)OCO2)C1CCCN(C(=O)C2CCOCC2)C1 (stereo unspecified)", "µg/mL", ">", 51.8],
  ["Cc1c([N+](=O)[O-])c2ccc(O)cc2n1-c1ccccc1", "µg/mL", "=", 1]
]}

###

Conditions: buffer; pH 7.4; 200.0 µM
In this section, each of the compounds is paired with its reported solubility kinetic.

{"columns": ["mol smiles", "value operator", "solubility kinetic [µg/mL]"],
 "data": [
  ["COc1ccc2oc3c(c2c1)NC(=O)CN=C3c1ccccc1", "=", 3.1],
  ["COc1cccc(/C=C/C(=O)OCC(=O)N2CCCC2)c1OC", ">", 47.9],
  ["COCCNc1nc(N)c([N+](=O)[O-])c(NC2CCCCC2)n1", "=", 7.2],
  ["Cc1ccc(OCCCCCN2CCOCC2)c(Cl)c1", "=", 26.3],
  ["CCOCCCNC(=O)c1c[nH]c2cc(OC)ccc2c1=O", ">", 45.7],
  ["NC12CC3CC(C1)CC(CC(=O)O)(C3)C2", "=", 23.6],
  ["Cn1c(SCC(=O)Nc2sccc2C#N)nnc1C1CC1", ">", 47.9],
  ["CC(=O)c1ccc(NC(=O)CCNC(=O)c2ccc(Cl)cc2)cc1", "=", 5.4],
  ["CCOc1ccc2c(c1)nc(C)n2C", ">", 28.5],
  ["COc1ccc2[nH]c(C(=O)Nc3ccccc3Cl)cc2c1", "<", 0.3],
  ["COc1cccc(NC(=O)COC(=O)c2sccc2C)c1", "=", 12.2],
  ["CCOc1ccccc1NC(=O)Cc1cccs1", "=", 33.6]
]}
